FYI, the data here is from ChEMBL document CHEMBL1201862.

test system: K562; assay: NCI tumour cell line growth inhibition, 48 h
Activity calls are given as the source filed them. No stated cut-off is given here; in the data, active = GI50 up to about 1.1 µM and inactive = higher.
What GI50 was measured for each of the following?

Use the examples below as a reference point.
Problem: // Input: CC1CC(=O)C(CC(=O)O)C1C(C(=O)C(=O)Nc1c(C#N)cccc1[N+](=O)[O-])[N+](=O)[O-] (stereo unspecified) . Output its GI50 only.
Solution: > 100 µM (inactive)

Problem: Identify measured GI50 corresponding to `O=C(O)/C(=C\c1ccccc1Cl)S(=O)(=O)c1ccccc1`
Solution: > 100 µM (inactive)

Problem: Given `C/C(CC(=O)Nc1ccc(C)c(C)c1)=N\NC(N)=S` , respond with its GI50.
Solution: > 100 µM (inactive)

Lab note: each molecule below needs its GI50 filled in.
1. N/C(S)=N/N=C/c1cc(CN2CCOCC2)c(N)cn1
2. COc1ccc(C2=NNC(=O)OC2c2ccccc2)cc1 (stereo unspecified)

Solution:
1: 89.5 µM (inactive); 2: 26.7 µM (inactive)

Problem: For the molecule `O=C1c2ccccc2C(=O)N1C/C=N/NS(=O)(=O)c1ccc(Cl)cc1` , give its reported GI50.
Solution: > 100 µM (inactive)
